This collection of values is drawn from patent US20100137313A1.

target under test: S. pneumoniae Topoisomerase IV ATPase (ParE) (Streptococcus pneumoniae serotype 4, UniProt Q59961)
Sequence (Q59961 whole entry): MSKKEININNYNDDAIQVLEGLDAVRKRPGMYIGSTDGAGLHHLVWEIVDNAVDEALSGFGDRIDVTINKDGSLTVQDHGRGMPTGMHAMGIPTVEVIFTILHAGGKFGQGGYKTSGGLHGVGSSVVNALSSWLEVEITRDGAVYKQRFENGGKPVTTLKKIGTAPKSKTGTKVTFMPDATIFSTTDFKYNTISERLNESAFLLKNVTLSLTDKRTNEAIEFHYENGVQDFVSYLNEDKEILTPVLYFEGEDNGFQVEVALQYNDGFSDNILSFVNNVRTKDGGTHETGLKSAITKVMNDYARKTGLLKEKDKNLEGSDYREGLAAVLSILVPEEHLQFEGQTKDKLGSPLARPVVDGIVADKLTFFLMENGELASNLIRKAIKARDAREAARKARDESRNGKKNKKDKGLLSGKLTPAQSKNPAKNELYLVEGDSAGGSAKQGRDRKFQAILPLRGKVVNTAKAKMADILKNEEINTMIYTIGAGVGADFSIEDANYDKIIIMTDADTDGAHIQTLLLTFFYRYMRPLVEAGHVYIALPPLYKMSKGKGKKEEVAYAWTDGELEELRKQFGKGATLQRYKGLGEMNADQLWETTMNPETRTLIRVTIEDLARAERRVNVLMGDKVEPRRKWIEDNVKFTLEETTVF
experiment description: S. pneumoniae Topoisomerase IV ATPase inhibition
Format: biochemical
experimental parameters: values marked * are an average of two or more data points, read-out: % Inh (13 μM) of S. pneumoniae Topoisomerase IV ATPase
Measured inhibition at 13 µM by item

>  <compound>
NC(=O)c1cccc(Nc2ncc(-c3cccc(/C=C/C(=O)O)c3)c(-n3ccc(C(F)(F)F)n3)n2)c1

>  <inhibition at 13 µM (%)>
100

$$$$
>  <compound>
COCCCNc1nc(Nc2ccc(F)c(Cl)c2)ncc1-c1ccc2sc(C(=O)OC)cc2c1

>  <inhibition at 13 µM (%)>
-56.9

$$$$
>  <compound>
COCCOc1ncc(-c2cnc(Nc3ccc(F)c(Cl)c3)nc2-n2ccc(C(F)(F)F)n2)cc1C(=O)O

>  <inhibition at 13 µM (%)>
100

$$$$
>  <compound>
Cc1cc(C(F)(F)F)nn1-c1nc(Nc2cc(F)cc(C#N)c2)ncc1-c1cccc(/C=C/C(=O)O)c1

>  <inhibition at 13 µM (%)>
97

$$$$
>  <compound>
O=C(O)/C=C/c1cccc(-c2cnc(Nc3ccc4c(c3)CCC4)nc2-n2ccc(C(F)(F)F)n2)c1

>  <inhibition at 13 µM (%)>
89

$$$$
>  <compound>
COc1cc(Nc2ncc(-c3cnc(OC)c(C(=O)NS(=O)(=O)CC(F)(F)F)c3)c(-n3nc(C(F)(F)F)cc3C)n2)cc(OC)c1

>  <inhibition at 13 µM (%)>
95

$$$$
>  <compound>
COc1ncc(-c2cnc(Nc3cc(C)cc(C)c3)nc2-n2ccc(C(F)(F)F)n2)cc1C(=O)NS(C)(=O)=O

>  <inhibition at 13 µM (%)>
100

$$$$
>  <compound>
COCCOc1cccc(Nc2ncc(-c3cccc(/C=C/C(=O)O)c3)c(N3CCOCC3)n2)c1

>  <inhibition at 13 µM (%)>
28

$$$$
>  <compound>
COc1cc(Nc2ncc(-c3cncc(C(=O)NCCO)c3)c(-n3nc(C(F)(F)F)cc3C)n2)cc(OC)c1

>  <inhibition at 13 µM (%)>
100

$$$$
>  <compound>
CS(=O)(=O)NCCCNc1nc(Nc2ccc(F)c(Cl)c2)ncc1-c1cncnc1

>  <inhibition at 13 µM (%)>
75.2

$$$$
>  <compound>
O=C(O)c1cncc(-c2cnc(Nc3ccc(F)c(Cl)c3)nc2NCc2ccccn2)c1

>  <inhibition at 13 µM (%)>
76.2

$$$$
>  <compound>
O=C(O)/C=C/c1cccc(-c2cnc(Nc3ccc(F)c(Cl)c3)nc2-n2ccc(C(F)(F)F)n2)c1

>  <inhibition at 13 µM (%)>
99.5

$$$$
>  <compound>
COCCCNc1nc(Nc2ccc(F)c(Cl)c2)ncc1-c1cncc(C(=O)CC(=O)OC)c1

>  <inhibition at 13 µM (%)>
86

$$$$
>  <compound>
O=C(O)/C=C/c1cccc(-c2cnc(Nc3ccc(F)c(Cl)c3)nc2-n2ccnc2)c1

>  <inhibition at 13 µM (%)>
86.1

$$$$
>  <compound>
CCOC(=O)c1cncc(-c2cnc(Nc3ccc(F)c(Cl)c3)nc2N2CCCC2C)c1 (stereo not drawn)

>  <inhibition at 13 µM (%)>
31.3

$$$$

* * *

target under test: S. pneumoniae Topoisomerase IV ATPase (ParE) (Streptococcus pneumoniae serotype 4)
experiment description: S. pneumoniae Topoisomerase IV ATPase inhibition
Type: biochemical
experimental parameters: values marked * are an average of two or more data points, read-out: % Inh (13 μM) of S. pneumoniae Topoisomerase IV ATPase
Measured inhibition at 13 µM by item
readout type: inhibition at 13 µM (%)

>  <compound>
COc1ncc(-c2cnc(Nc3ccc(F)c(Cl)c3)nc2-n2nc(C(F)(F)F)cc2C)cc1C(N)=O

>  <readout unit>
%

>  <assay value>
82

$$$$
>  <compound>
Cc1ccc(S(=O)(=O)n2ccc3cc(Nc4ncc(-c5cncc(C(=O)O)c5)c(-n5nc(C(F)(F)F)cc5C)n4)ccc32)cc1

>  <readout unit>
%

>  <assay value>
56

$$$$
>  <compound>
O=C(O)c1cncc(-c2cnc(Nc3ccc(F)c(Cl)c3)nc2N2CCOCC2)c1

>  <readout unit>
%

>  <assay value>
94.4

$$$$
>  <compound>
NC(=O)CCNc1nc(Nc2ccc(F)c(Cl)c2)ncc1-c1cncc(C(=O)O)c1

>  <readout unit>
%

>  <assay value>
79.5

$$$$
>  <compound>
O=C(O)CCC(=O)Nc1ccc(-c2cnc(Nc3ccc(F)c(Cl)c3)nc2N2CCOCC2)cc1

>  <readout unit>
%

>  <assay value>
100

$$$$
>  <compound>
COc1cc(Nc2ncc(-c3cnc(OCCCS(C)(=O)=O)c(C(=O)NS(=O)(=O)C(F)(F)F)c3)c(-n3ccc(C(F)(F)F)n3)n2)cc(OC)c1

>  <readout unit>
%

>  <assay value>
100

$$$$
>  <compound>
Cc1cccc(Nc2ncc(-c3cccc(/C=C/C(=O)O)c3)c(-n3nc(C(F)(F)F)cc3C)n2)c1

>  <readout unit>
%

>  <assay value>
100

$$$$
>  <compound>
COc1cc(Nc2ncc(-c3cnc(OC)c(C(=O)NOCCN4CCOCC4)c3)c(-n3ccc(C(F)(F)F)n3)n2)cc(OC)c1

>  <readout unit>
%

>  <assay value>
100

$$$$
>  <compound>
CCOC(=O)/C=C/c1cccc(-c2cnc(Nc3ccc(F)c(Cl)c3)nc2NCCCOC)c1

>  <readout unit>
%

>  <assay value>
31.1

$$$$
>  <compound>
COc1ncc(C(=O)O)cc1-c1cnc(Nc2cc(C)cc(C)c2)nc1-n1nc(C(F)(F)F)cc1C

>  <readout unit>
%

>  <assay value>
100

$$$$
>  <compound>
O=C(O)c1cncc(-c2cnc(Nc3cccc(Cl)c3)nc2-n2ccc(C(F)(F)F)n2)c1

>  <readout unit>
%

>  <assay value>
100

$$$$
>  <compound>
O=S(=O)(NCCO)c1cccc(-c2cnc(Nc3ccc(F)c(Cl)c3)nc2-n2ccc(C(F)(F)F)n2)c1

>  <readout unit>
%

>  <assay value>
100

$$$$
>  <compound>
Cc1ncsc1CCNc1nc(Nc2ccc(F)c(Cl)c2)ncc1-c1cncc(C(=O)O)c1

>  <readout unit>
%

>  <assay value>
80.5

$$$$
>  <compound>
CC(=O)c1cccc(Nc2ncc(-c3cccc(/C=C/C(=O)O)c3)c(-n3nc(C(F)(F)F)cc3C)n2)c1

>  <readout unit>
%

>  <assay value>
99

$$$$
>  <compound>
COc1c(F)cc(Nc2ncc(-c3cccc(/C=C/C(=O)O)c3)c(N3CCOCC3)n2)cc1F

>  <readout unit>
%

>  <assay value>
30

$$$$
>  <compound>
COCCCNc1nc(Nc2ccc(F)c(Cl)c2)ncc1-c1nc(-c2ccncc2)cs1

>  <readout unit>
%

>  <assay value>
83

$$$$
>  <compound>
O[C@H]1CC[C@H](Nc2nc(Nc3ccc(F)c(Cl)c3)ncc2-c2cncnc2)CC1

>  <readout unit>
%

>  <assay value>
72.9

$$$$
>  <compound>
CCOC(=O)c1cncc(-c2cnc(Nc3ccc(F)c(Cl)c3)nc2NCc2cncn2C)c1

>  <readout unit>
%

>  <assay value>
77.4

$$$$
>  <compound>
CN(C)CCCNc1nc(Nc2ccc(F)c(Cl)c2)ncc1-c1cncnc1

>  <readout unit>
%

>  <assay value>
91.1

$$$$
>  <compound>
CCOC(=O)c1cncc(-c2cnc(Nc3ccc(F)c(Cl)c3)nc2N2CCC2)c1

>  <readout unit>
%

>  <assay value>
35.7

$$$$
>  <compound>
N#Cc1cc(Cl)cc(Nc2ncc(-c3cncc(C(=O)O)c3)c(N3CCOCC3)n2)c1

>  <readout unit>
%

>  <assay value>
74

$$$$
>  <compound>
CC1CCC(C)N1c1nc(Nc2ccc(F)c(Cl)c2)ncc1-c1cncc(C(=O)O)c1 (stereo not drawn)

>  <readout unit>
%

>  <assay value>
81.8

$$$$
>  <compound>
COCC(COC)NC(=O)c1cncc(-c2cnc(Nc3ccc(F)c(Cl)c3)nc2-n2nc(C(F)(F)F)cc2C)c1

>  <readout unit>
%

>  <assay value>
100

$$$$
>  <compound>
O=C(O)/C=C/c1cccc(-c2cnc(Nc3ccc(F)c(Cl)c3)nc2NCCn2cccn2)c1

>  <readout unit>
%

>  <assay value>
87.3

$$$$
>  <compound>
O=C(O)/C=C/c1cccc(-c2cnc(Nc3ccc(F)c(Cl)c3)nc2NCCn2ccnc2)c1

>  <readout unit>
%

>  <assay value>
109

$$$$
>  <compound>
Cc1cc(C#N)cc(Nc2ncc(-c3cncc(C(=O)O)c3)c(-n3nc(C(F)(F)F)cc3C)n2)c1

>  <readout unit>
%

>  <assay value>
100

$$$$
>  <compound>
Fc1ccc(Nc2ncc(-c3cncnc3)c(NCc3cccnc3)n2)cc1Cl

>  <readout unit>
%

>  <assay value>
63

$$$$
>  <compound>
O=C(O)/C=C/c1cccc(-c2cnc(Nc3ccc(F)c(Cl)c3)nc2-n2nc3cccnc3n2)c1

>  <readout unit>
%

>  <assay value>
104

$$$$
>  <compound>
COc1cc(Nc2ncc(-c3cccc(/C=C/C(=O)O)c3)c(-n3ccc(C(F)(F)F)n3)n2)cc(S(C)(=O)=O)c1

>  <readout unit>
%

>  <assay value>
100

$$$$
>  <compound>
COc1cc(Nc2ncc(-c3cnc(OC)c(C(=O)NS(C)(=O)=O)c3)c(-n3ccc(C(F)(F)F)n3)n2)cc(OC)c1

>  <readout unit>
%

>  <assay value>
97

$$$$
